- procedure.details: chemical genetic growth profiling, strain panel (AID 1159580);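 also: tested at 20 µM; growth read once vehicle control cultures reached saturation at 30 °C; 1 = growth at the plate median or of vehicle wells; lower values mean less growth of the strain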
- condition.description: S. cerevisiae deletion strains, growth OD, locus YNR052C, strain pop2, stronger effect = lower value
Screen size: about 5,500 compounds; about 2,000 (36%) were called active. Roughly 18% stayed inconclusive and do not appear here. Some of the results follow.
Measured normalized growth, listed per entry for reference.
quantity.kind: normalized growth

[[record]]
compound = "CC[C@H]1OC(=O)[C@H](C)[C@@H](O[C@H]2C[C@@](C)(OC)[C@@H](O)[C@H](C)O2)[C@H](C)[C@@H](O[C@@H]2O[C@H](C)C[C@H](N(C)C)[C@H]2O)[C@](C)(O)C[C@@H](C)CN(C)[C@H](C)[C@@H](O)[C@]1(C)O"
quantitative_readout = 0.957

[[record]]
compound = "C=C1C2CC[C@H]3[C@]4(C)C[C@H](OC5OC(CO)C(OS(=O)(=O)O)C(OS(=O)(=O)O)C5OC(=O)CC(C)C)C[C@@H](C(=O)O)[C@H]4CC[C@]3(C2)[C@H]1O (stereo partly drawn)"
quantitative_readout = 0.97

[[record]]
compound = "COc1cc2c(cc1OC)[C@@H]1C(=O)c3ccc4oc(C(C)C)cc4c3O[C@@H]1CO2"
quantitative_readout = 1.01

[[record]]
compound = "COP(=O)(OC)OC=C(Cl)Cl"
quantitative_readout = 0.991

[[record]]
compound = "CC(C(=O)O)c1cccc(C(=O)c2ccccc2)c1 (stereo not drawn)"
quantitative_readout = 0.958

[[record]]
compound = "CC1/C(=N\\O)C[C@@H]2C[C@H]1C2(C)C (stereo partly drawn)"
quantitative_readout = 1.03

[[record]]
compound = "COc1ccc2cc([C@H](C)CO)ccc2c1"
quantitative_readout = 0.975

[[record]]
compound = "NCCSSCCN"
quantitative_readout = 1

[[record]]
compound = "COc1cc2c(cc1OC)C1C(=O)c3c(OC)cc4c(c3OC1CO2)CCC(C)(C)O4 (stereo not drawn)"
quantitative_readout = 0.976

[[record]]
compound = "CCN(CCO)CCCC(C)Nc1ccnc2cc(Cl)ccc12 (stereo not drawn)"
quantitative_readout = 1.02

[[record]]
compound = "O=C(CC[N+](=O)[O-])OC[C@H]1O[C@@H](O)[C@H](OC(=O)CC[N+](=O)[O-])[C@@H](OC(=O)CC[N+](=O)[O-])[C@@H]1OC(=O)CC[N+](=O)[O-]"
quantitative_readout = 1

[[record]]
compound = "CC1=C(CC(=O)O)c2cc(F)ccc2/C1=C\\c1ccc(S(C)=O)cc1 (stereo not drawn)"
quantitative_readout = 1.02

[[record]]
compound = "CC1CC2C3CC(F)C4=CC(=O)C=CC4(C)C3(F)C(O)CC2(C)C1(O)C(=O)CO (stereo not drawn)"
quantitative_readout = 1.03

[[record]]
compound = "COc1cc2c(cc1OC)C1C(=O)c3ccc4c(c3OC1CO2)CCC(C)(C)O4 (stereo not drawn)"
quantitative_readout = 1.02

[[record]]
compound = "CCN(CC)CCCC(C)Nc1ccnc2cc(Cl)ccc12 (stereo not drawn)"
quantitative_readout = 1.01

[[record]]
compound = "CO[C@H]1[C@H](O)[C@H](O[C@H]2CC[C@]3(C)C4CC[C@]5(C)C(C6=CC(=O)OC6)CC[C@]5(O)C4CC[C@@H]3C2)O[C@@H](C)[C@@H]1O (stereo partly drawn)"
quantitative_readout = 1

[[record]]
compound = "CCOC(=O)[C@H](CCc1ccccc1)N[C@H]1CCc2ccccc2N(CC(=O)O)C1=O"
quantitative_readout = 0.977

[[record]]
compound = "CS(=O)(=O)c1ccc(C2=C(c3ccccc3)C(=O)OC2)cc1"
quantitative_readout = 0.975

[[record]]
compound = "CCOC(=O)C(=O)C1(C(=O)OCC)Oc2cc(OC)cc(OC)c2C(=O)C1c1ccccc1 (stereo not drawn)"
quantitative_readout = 0.985

[[record]]
compound = "COc1cc(NC(C)CCCN)c2ncccc2c1 (stereo not drawn)"
quantitative_readout = 1.02

[[record]]
compound = "C[N+](C)(C)CCOC(N)=O"
quantitative_readout = 0.97

[[record]]
compound = "COc1cc2c(cc1OC)[C@@H]1C(=O)c3ccc(O)c(CC=C(C)C)c3O[C@@H]1CO2"
quantitative_readout = 0.986

[[record]]
compound = "C[C@H]1CC2C([C@@H](O)C[C@@]3(C)C2CC[C@]3(O)C(=O)CO)[C@@]2(C)C=CC(=O)C=C12 (stereo partly drawn)"
quantitative_readout = 1.02

[[record]]
compound = "CC(Oc1ccccc1)C(=O)N[C@@H]1C(=O)N2[C@@H]1SC(C)(C)[C@@H]2C(=O)O (stereo partly drawn)"
quantitative_readout = 1.02

[[record]]
compound = "C=C1C([C@]2(C)C(CC(=O)OC)[C@@](C)(COC(C)=O)OC(=O)C[C@@H]2OC(C)=O)[C@@H](OC=O)[C@H](OC(=O)C(OC(C)=O)C(C)CC)[C@@]2(C)[C@H](c3ccoc3)CC(=O)C12O (stereo partly drawn)"
quantitative_readout = 1.04

[[record]]
compound = "C[C@@H]1[C@H]2[C@H](O[C@@H]3O[C@H](CO)[C@@H](O)[C@H](O)[C@H]3O)OC=C(C(=O)O)[C@H]2C[C@@H]1O"
quantitative_readout = 0.96

[[record]]
compound = "CCC(=O)O[C@H]1CCC2C3CCC4=CC(=O)CC[C@]4(C)C3CC[C@@]21C (stereo partly drawn)"
quantitative_readout = 0.924

[[record]]
compound = "COc1cc2c(cc1OC)C(=O)OC2"
quantitative_readout = 1.01

[[record]]
compound = "CC(C[N+](C)(C)C)OC(N)=O (stereo not drawn)"
quantitative_readout = 0.982

[[record]]
compound = "CC1CC2C3CCC4=CC(=O)C=C[C@]4(C)[C@@]3(F)[C@@H](O)C[C@]2(C)[C@@]1(O)C(=O)CO (stereo partly drawn)"
quantitative_readout = 0.966

[[record]]
compound = "CC(C(=O)O)c1cccc(Oc2ccccc2)c1 (stereo not drawn)"
quantitative_readout = 0.98

[[record]]
compound = "C=C(C)C1CNC(C(=O)O)C1CC(=O)O (stereo not drawn)"
quantitative_readout = 1.01

[[record]]
compound = "COc1ccc(OC)c(C(O)C(C)N)c1 (stereo not drawn)"
quantitative_readout = 0.992

[[record]]
compound = "O=C1C=CC(=C(c2ccc(O)cc2)c2ccc(O)cc2)C=C1"
quantitative_readout = 0.966

[[record]]
compound = "C[C@H]1OC(n2cc(F)c(=O)[nH]c2=O)C(O)[C@@H]1O (stereo partly drawn)"
quantitative_readout = 0.958

[[record]]
compound = "COc1cc2c(cc1OC)C1C(=O)c3c(O)cc4c(c3OC1CO2)C=CC(C)(C)O4 (stereo not drawn)"
quantitative_readout = 1.03

[[record]]
compound = "COc1cc2c(cc1OC)C1C(=O)c3c(cc4c(c3O)C=CC(C)(C)O4)OC1CO2 (stereo not drawn)"
quantitative_readout = 1.04

[[record]]
compound = "CC(C)(OC(=O)c1ccccc1)[C@@H]1Cc2cc3ccc(=O)oc3cc2O1"
quantitative_readout = 0.983

